For each record, write down the corresponding remaining activity at 10 µM.
Molecular target: recombinant autotaxin (Homo sapiens, UniProt Q13822)
Construct: made in house; host or cells: Hi5 insect cells (baculovirus)
Assay: Autotaxin test (enzyme test), Amplex Red fluorescence with LPC substrate
Type: biochemical
Settings: 10 μM compound; autotaxin inhibition (enzyme test); read-out: % Control at 10 μM
# number only, unit % dropped from output

Could you tell me which remaining activity at 10 µM is on file for O=C1Nc2ccc(-c3ccc(Cl)cc3F)cc2C(=O)N2CCN(C(=O)[C@@H]3CCCN3C3CCCNC3)C[C@H]12 (stereo partly shown) ?
6

I'd like to know its remaining activity at 10 µM. The compound in question is CC(C)(C)CC(=O)N1CCN2C(=O)c3cc(-c4ccccc4Cl)ccc3NC(=O)C2C1 (stereo not shown)
-10

Find the recorded remaining activity at 10 µM belonging to CC(C)(C)[C@H](O)C(=O)N1CCN2C(=O)c3cc(-c4ccc(Cl)cc4F)ccc3NC(=O)C2C1 (stereo partly shown) and report it.
-27

Requested read-out: remaining activity at 10 µM. Entry: Cc1ccc(-c2ccc3c(c2)C(=O)N2CCN(C(=O)CC(C)(C)C)CC2C(=O)N3)cc1C (stereo not shown)
24

Item O=C1Nc2ccc(-c3ccc(Cl)cc3F)cc2C(=O)N2CCN(C(=O)n3ccnc3)C[C@H]12 has what recorded remaining activity at 10 µM?
48

remaining activity at 10 µM for O=C(O)CCC(=O)N1CCN2C(=O)c3cc(-c4ccc(Cl)cc4)ccc3NC(=O)[C@@H]2C1 ?
71

Can you look up the measured remaining activity at 10 µM of CC(C)(C)CC(=O)N1CCN2C(=O)c3cc(-c4ccc(Cl)cc4F)ccc3N(CCN3CCOCC3)C(=O)[C@@H]2C1 for me?
3

---

Biological target: recombinant autotaxin (Homo sapiens)
Construct: made in house; host or cells: Hi5 insect cells (baculovirus)
Assay: Autotaxin test (enzyme test), Amplex Red fluorescence with LPC substrate
Type: biochemical
Conditions: 10 μM compound; autotaxin inhibition (enzyme test); read-out: % Control at 10 μM
Criterion: remaining activity at 10 µM strictly under 50%. Met: 1 (yes). Not met: 0 (no).

Input CN1CCC(N2C(=O)C3CN(C(=O)CC(C)(C)C)CCN3C(=O)c3cc(-c4ccc(Cl)cc4F)ccc32)CC1 (stereo not shown) ; condition: remaining activity at 10 µM strictly below 50%. Does it hold?
1 (yes)

Does this molecule meet the criterion remaining activity at 10 µM < 50%? O=C1Nc2ccc(-c3ccc(Cl)cc3)cc2CN2CCN(C(=O)[C@@H]3CCCN3C3CCNCC3)CC12 (stereo partly shown)
0 (no)

I'd appreciate it if you could check whether O=C1Nc2ccc(-c3ccc(Cl)cc3F)cc2C(=O)N2CCN(S(=O)(=O)CC3CCCCC3)C[C@H]12 has remaining activity at 10 µM smaller than 50%.
1 (yes)

Consider CC(C)(C)[C@H](O)C(=O)N1CCN2C(=O)c3cc(-c4ccc(Cl)cc4)ccc3NC(=O)[C@@H]2C1 . Does its remaining activity at 10 µM lie strictly below 50%?
0 (no)

Does the reported remaining activity at 10 µM of the following molecule sit strictly below 50%? C#Cc1ccc(-c2ccc3c(c2)C(=O)N2CCN(C(=O)CC(C)(C)C)CC2C(=O)N3)cc1 (stereo not shown)
1 (yes)

Check if remaining activity at 10 µM falls below 50% for O=C1Nc2ccc(-c3ccc(Cl)cc3)cc2C(=O)N2CCN(C(=O)C(O)c3ccccc3Cl)CC12 (stereo not shown) .
1 (yes)

Please let me know if O=C1Nc2ccc(-c3ccccc3F)cc2C(=O)N2CCN(C(=O)[C@@H]3CSCN3)C[C@H]12 shows remaining activity at 10 µM below 50%.
1 (yes)

---

Biological target: recombinant autotaxin (Homo sapiens)
Construct: made in house; host or cells: Hi5 insect cells (baculovirus)
Assay: Autotaxin test (enzyme test), Amplex Red fluorescence with LPC substrate
Assay type: biochemical
Conditions: 10 μM compound; autotaxin inhibition (enzyme test); read-out: % Control at 10 μM
remaining activity at 10 µM under 10% gets class 1, anything at or over 10% gets class 0.

Record COc1ccc(-c2ccc3c(c2)C(=O)N2CCN(C(=O)c4cccc(F)c4)C[C@@H]2C(=O)N3)cc1 : is its remaining activity at 10 µM strictly below 10%?
class 0

Consider Cc1ccc(-c2ccc3c(c2)C(=O)N2CCN(C(=O)CC(C)(C)C)CC2C(=O)N3)c(C)c1 (stereo not drawn) . Does its remaining activity at 10 µM lie strictly below 10%?
class 0

is_below(remaining activity at 10 µM, 10%) for O=C1Nc2ccc(-c3ccccc3F)cc2C(=O)N2CCN(C(=O)c3ccc4[nH]nnc4c3)CC12 (stereo not drawn) ?
class 0

Threshold test, remaining activity at 10 µM < 10%: O=C1Nc2ccc(-c3ccc(Cl)cc3)cc2C(=O)N2CCN(C(=O)C3CCCN3C(=O)c3ccncc3)CC12 (stereo not drawn)
class 0

is_below(remaining activity at 10 µM, 10%) for CC(C)(C)[C@H](O)C(=O)N1CCN2C(=O)c3cc(-c4ccc(Cl)cc4F)ccc3NC(=O)[C@H]2C1 ?
class 1

Could you please tell me whether remaining activity at 10 µM recorded for O=C1Nc2ccc(-c3ccc(Cl)cc3)cc2C(=O)N2CCN(C(=O)c3ccccn3)CC12 (stereo not drawn) is less than 10%?
class 0

Just wondering, is remaining activity at 10 µM of CC(C)(C)CC(=O)N1CCN2C(=O)c3cc(-c4ccc(Cl)cc4F)ccc3N(CC3CCNCC3)C(=O)C2C1 (stereo not drawn) below 10%?
class 0

Criterion: remaining activity at 10 µM strictly below 10%. Is it met by CC(C)(C)CC(=O)N1CCN2C(=O)c3cc(-c4cc(C(F)(F)F)ccc4F)ccc3NC(=O)C2C1 (stereo not drawn) ?
class 0

I wonder whether Cn1cc(CCC(=O)N2CCN3C(=O)c4cc(-c5ccc(Cl)cc5)ccc4NC(=O)C3C2)cn1 (stereo not drawn) has remaining activity at 10 µM below 10%. Can you tell?
class 0

remaining activity at 10 µM strictly < 10% for this compound? O=C1Nc2ccc(-c3ccccc3)cc2C(=O)N2CCN(C(=O)[C@@H]3CSCN3)C[C@H]12
class 0

Strictly below 10% in remaining activity at 10 µM? CC(C)(C)CC(=O)N1CCN2C(=O)c3cc(-c4cc(F)c(F)cc4F)ccc3NC(=O)C2C1 (stereo not drawn)
class 1

Report whether reported remaining activity at 10 µM is lower than 10% (strictly) for Cn1cc(CCC(=O)N2CCN3C(=O)c4cc(-c5ccc(Cl)cc5F)ccc4NC(=O)[C@@H]3C2)cn1
class 0

Determine if Cn1cc(-c2ccc3c(c2)C(=O)N2CCN(C(=O)CC(C)(C)C)CC2C(=O)N3)cn1 (stereo not drawn) shows remaining activity at 10 µM strictly lower than 10%.
class 0

---

Hi there, I'd appreciate the recorded remaining activity at 10 µM for every entry that follows.
Target: recombinant autotaxin (Homo sapiens, UniProt Q13822)
Construct: made in house; host or cells: Hi5 insect cells (baculovirus)
Experiment: Autotaxin test (enzyme test), Amplex Red fluorescence with LPC substrate
Type: biochemical
Details: 10 μM compound; autotaxin inhibition (enzyme test); read-out: % Control at 10 μM
I only need the number, in %, no unit after it.

Fill in the blank: the reported remaining activity at 10 µM of O=C(C(=O)N1CCN2C(=O)c3cc(-c4ccc(Cl)cc4)ccc3NC(=O)C2C1)c1ccccc1 (stereo not shown) is ____.
11

Can you share its remaining activity at 10 µM? I mean this compound: CC(C)(C)CC(=O)N1CCN2C(=O)c3cc(-c4ccc(Cl)cc4F)ccc3N(CC(N)=O)C(=O)[C@H]2C1
3

Given the compound CC(C)(C)CC(=O)N1CCN2C(=O)c3cc(-c4ccc(Cl)cc4F)ccc3N(CCN3CCOCC3)C(=O)C2C1 (stereo not shown) , what is its reported remaining activity at 10 µM?
3

Entry O=C1Nc2ccc(-c3ccc(Cl)cc3)cc2C(=O)N2CCN(C(=O)c3ccccc3)CC12 (stereo not shown) : reported remaining activity at 10 µM = ?
59

What does the data say about its remaining activity at 10 µM? Entry: O=C1Nc2ccc(-c3ccccc3F)cc2C(=O)N2CCN(C(=O)c3cccs3)C[C@H]12
76

Any idea what remaining activity at 10 µM was measured for Cn1cc(CCC(=O)N2CCN3C(=O)c4cc(-c5ccc(Cl)cc5F)ccc4NC(=O)[C@H]3C2)cn1 ?
19

Can you look up the measured remaining activity at 10 µM of O=C1Nc2ccc(-c3ccccc3F)cc2C(=O)N2CCN(C(=O)[C@@H]3CSCN3)C[C@@H]12 for me?
18

---

Molecular target: recombinant autotaxin (Homo sapiens)
Construct: made in house; host or cells: Hi5 insect cells (baculovirus)
Assay: Autotaxin test (enzyme test), Amplex Red fluorescence with LPC substrate
Assay type: biochemical
Details: 10 μM compound; autotaxin inhibition (enzyme test); read-out: % Control at 10 μM
measurement.kind: remaining activity at 10 µM (%)
Write down the numeric answer in % and omit the unit.

Give the measured remaining activity at 10 µM of CC(C)[C@H](N)C(=O)N1CCN2C(=O)c3cc(-c4ccc(Cl)cc4F)ccc3NC(=O)C2C1 (stereo partly drawn) .
-9

Item CC(C)(C)CC(=O)N1CCN2C(=O)c3cc(-c4ccc(Cl)cc4F)ccc3N(CCC3CCNCC3)C(=O)[C@H]2C1 has what recorded remaining activity at 10 µM?
2

Entry O=C1Nc2ccc(-c3ccc(Cl)cc3F)cc2C(=O)N2CCN(C(=O)[C@@H]3CCCN3C3CCNCC3)C[C@@H]12 has what remaining activity at 10 µM?
20

Record request: remaining activity at 10 µM value, item O=C1Nc2ccc(-c3ccc(Cl)cc3F)cc2C(=O)N2CCN(C(=O)Cc3ccccc3)CC12 (stereo not drawn)
17

// remaining activity at 10 µM lookup, key: O=C1Nc2ccc(-c3ccc(Cl)cc3)cc2C(=O)N2CCN(C(=O)c3cccs3)C[C@H]12
71

# remaining activity at 10 µM lookup, item CC(C)(C)CC(=O)N1CCN2Cc3cc(-c4ccccc4F)ccc3NC(=O)C2C1 (stereo not drawn)
73

Dear colleague, I am looking for the recorded remaining activity at 10 µM of the following compound: O=C1Nc2ccc(-c3cccs3)cc2C(=O)N2CCN(C(=O)[C@@H](O)c3ccccc3)C[C@H]12
86

Which remaining activity at 10 µM reading was recorded for the compound CC(O)(C(=O)N1CCN2C(=O)c3cc(-c4ccc(Cl)cc4)ccc3NC(=O)C2C1)c1ccccc1 (stereo not drawn) ?
22

Give its remaining activity at 10 µM value. Item: O=C1Nc2ccc(-c3ccc(Cl)cc3)cc2C(=O)N2CCN(C(=O)[C@@H]3CCCN3)CC12 (stereo partly drawn)
28

Which value of remaining activity at 10 µM has been reported for CN(C)CCN1CCC[C@H]1C(=O)N1CCN2C(=O)c3cc(-c4ccc(Cl)cc4F)ccc3NC(=O)C2C1 (stereo partly drawn) in the records?
80

Sample O=C1Nc2ccc(-c3ccc(Cl)cc3)cc2C(=O)N2CCN(C(=O)c3c(C(F)(F)F)nc4ccccn34)CC12 (stereo not drawn) — what was its remaining activity at 10 µM?
70

Using the record for CC(=O)N1CCN2C(=O)c3cc(-c4ccc(Cl)cc4F)ccc3NC(=O)[C@H]2C1 , report its remaining activity at 10 µM.
71

Item under review: O=C([C@@H]1CCCN1C1CCNCC1)N1CCN2C(=O)c3cc(-c4ccc(Cl)cc4F)ccc3N(CCO)C(=O)[C@H]2C1 . Reported remaining activity at 10 µM?
16

Quick one: remaining activity at 10 µM for O=C1Nc2ccc(-c3ccc(Cl)cc3)cc2C(=O)N2CCN(C(=O)Cc3ccccn3)CC12 (stereo not drawn) ?
51

Which remaining activity at 10 µM is reported for this compound? O=C1Nc2ccc(-c3ccc(Cl)cc3F)cc2C(=O)N2CCN(C(=O)[C@@H]3CCCN3C3CCNCC3)CC12 (stereo partly drawn)
19
